Values from patent US10407388B2

Target of assay: RORα (Homo sapiens)
Construct: expressed in transfected cells; host or cells: CV-1 cells (ATCC CCL-70)
Sequence (P35398 1-523): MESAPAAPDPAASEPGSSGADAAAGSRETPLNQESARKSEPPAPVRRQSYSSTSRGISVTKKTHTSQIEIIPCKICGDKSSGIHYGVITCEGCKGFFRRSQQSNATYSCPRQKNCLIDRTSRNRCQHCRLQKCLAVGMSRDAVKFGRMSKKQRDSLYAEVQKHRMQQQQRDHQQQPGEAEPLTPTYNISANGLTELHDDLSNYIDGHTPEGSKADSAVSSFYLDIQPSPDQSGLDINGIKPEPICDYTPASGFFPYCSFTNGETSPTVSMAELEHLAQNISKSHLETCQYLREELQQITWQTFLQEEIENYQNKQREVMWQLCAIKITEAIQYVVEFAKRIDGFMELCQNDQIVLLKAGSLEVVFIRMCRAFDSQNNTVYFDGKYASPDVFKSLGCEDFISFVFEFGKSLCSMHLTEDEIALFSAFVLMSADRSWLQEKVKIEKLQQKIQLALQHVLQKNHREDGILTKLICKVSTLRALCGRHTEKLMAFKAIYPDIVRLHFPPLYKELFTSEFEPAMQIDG
Run description: Transcriptional activity of RORα, RORE-tk-Luc reporter in CV-1 cells (Experimental Example 1)
Format: cell-based
Condition: JC1 compounds 100 μM, 24 hours; luciferase activity standardized by β-gal; versus control treated only with solvent
Metric: Fold Activation

CNC(=S)N[C@@H](C)c1ccc(OC)cc1 [Compound 36]	0.6
CNC(=S)NCc1ccc(OC)cc1OC [Compound 23]	2.9
CNC(=S)NCc1ccc(Oc2ccc(OC)cc2)cc1 [Compound 53]	2.1

a = CNC(=S)NCc1ccccc1Oc1ccccc1 [Compound 51, 1-methyl-3-(2-phenoxy-benzyl)-thiourea]
b = CNC(=S)NCc1ccc(C(C)(C)C)cc1 [Compound 13, 1-(4-t-butyl-benzyl)-3-methyl-thiourea]
Problem: Name the one with the greater Fold Activation value, either a or b as given. Please reply using the label of the selected record.
Solution: a
